measurementTarget: HDAC2 (Homo sapiens)
Sequence (Q92769 whole entry): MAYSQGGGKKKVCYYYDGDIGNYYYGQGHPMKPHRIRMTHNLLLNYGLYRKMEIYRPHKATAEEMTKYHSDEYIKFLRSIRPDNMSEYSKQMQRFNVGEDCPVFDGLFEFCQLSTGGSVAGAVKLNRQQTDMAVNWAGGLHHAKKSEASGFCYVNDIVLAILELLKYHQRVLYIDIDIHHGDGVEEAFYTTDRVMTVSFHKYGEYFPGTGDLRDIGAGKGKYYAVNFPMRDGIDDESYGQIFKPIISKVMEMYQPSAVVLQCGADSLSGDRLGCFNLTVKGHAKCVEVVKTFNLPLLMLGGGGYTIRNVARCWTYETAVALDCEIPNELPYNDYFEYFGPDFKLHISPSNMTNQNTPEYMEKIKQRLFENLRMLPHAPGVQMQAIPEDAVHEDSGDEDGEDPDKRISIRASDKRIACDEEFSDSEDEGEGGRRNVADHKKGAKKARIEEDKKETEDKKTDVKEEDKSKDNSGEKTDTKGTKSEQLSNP
experimentNotes: HDAC2 inhibition assay, luminometric method (HDAC-Glo I/II)
Type: biochemical
Design: purchased BPS Bioscience 50002
measurementParameters: in the presence of DTT (reduced); HDAC2 0.5 nM; read-out: IC50 HDAC2 inhibition (luminescence)
property: pIC50
Would you please state pIC50, meaning minus log10 of the concentration in mol/L, as a bare number?

Consider CN(C(=O)CC(O)/C=C/CCSS(=O)(=O)CC/C=C/C(O)CC(=O)N(C)c1ccccc1)c1ccccc1 (stereo not shown) . Its measured pIC50 is 6.55

====

measurementTarget: HDAC2 (Homo sapiens)
experimentNotes: Endogenous HDAC2 activity assay (luminescence) in SHSY5Y cells
Format: cell-based
Parameters: endogenous in cells; host or cells: SHSY5Y
measurementParameters: not reduced by DTT; 30 min of treatment
property: IC50 (µM)
# unit: µM | format: bare number

Consider CN(C(=O)CC(O)/C=C/CCSS(=O)(=O)CC/C=C/C(O)CC(=O)N(C)c1ccccc1)c1ccccc1 (stereo not shown) [JRM-28] . Its measured IC50 is 5.44
